The origin of these recorded values is patent US9403798B2.

Target: Human T-type calcium channel (Cav 3.2) (Homo sapiens, UniProt O95180)
Construct: Edward Perez-Reyes, University of Virginia, USA
Sequence (O95180 whole entry): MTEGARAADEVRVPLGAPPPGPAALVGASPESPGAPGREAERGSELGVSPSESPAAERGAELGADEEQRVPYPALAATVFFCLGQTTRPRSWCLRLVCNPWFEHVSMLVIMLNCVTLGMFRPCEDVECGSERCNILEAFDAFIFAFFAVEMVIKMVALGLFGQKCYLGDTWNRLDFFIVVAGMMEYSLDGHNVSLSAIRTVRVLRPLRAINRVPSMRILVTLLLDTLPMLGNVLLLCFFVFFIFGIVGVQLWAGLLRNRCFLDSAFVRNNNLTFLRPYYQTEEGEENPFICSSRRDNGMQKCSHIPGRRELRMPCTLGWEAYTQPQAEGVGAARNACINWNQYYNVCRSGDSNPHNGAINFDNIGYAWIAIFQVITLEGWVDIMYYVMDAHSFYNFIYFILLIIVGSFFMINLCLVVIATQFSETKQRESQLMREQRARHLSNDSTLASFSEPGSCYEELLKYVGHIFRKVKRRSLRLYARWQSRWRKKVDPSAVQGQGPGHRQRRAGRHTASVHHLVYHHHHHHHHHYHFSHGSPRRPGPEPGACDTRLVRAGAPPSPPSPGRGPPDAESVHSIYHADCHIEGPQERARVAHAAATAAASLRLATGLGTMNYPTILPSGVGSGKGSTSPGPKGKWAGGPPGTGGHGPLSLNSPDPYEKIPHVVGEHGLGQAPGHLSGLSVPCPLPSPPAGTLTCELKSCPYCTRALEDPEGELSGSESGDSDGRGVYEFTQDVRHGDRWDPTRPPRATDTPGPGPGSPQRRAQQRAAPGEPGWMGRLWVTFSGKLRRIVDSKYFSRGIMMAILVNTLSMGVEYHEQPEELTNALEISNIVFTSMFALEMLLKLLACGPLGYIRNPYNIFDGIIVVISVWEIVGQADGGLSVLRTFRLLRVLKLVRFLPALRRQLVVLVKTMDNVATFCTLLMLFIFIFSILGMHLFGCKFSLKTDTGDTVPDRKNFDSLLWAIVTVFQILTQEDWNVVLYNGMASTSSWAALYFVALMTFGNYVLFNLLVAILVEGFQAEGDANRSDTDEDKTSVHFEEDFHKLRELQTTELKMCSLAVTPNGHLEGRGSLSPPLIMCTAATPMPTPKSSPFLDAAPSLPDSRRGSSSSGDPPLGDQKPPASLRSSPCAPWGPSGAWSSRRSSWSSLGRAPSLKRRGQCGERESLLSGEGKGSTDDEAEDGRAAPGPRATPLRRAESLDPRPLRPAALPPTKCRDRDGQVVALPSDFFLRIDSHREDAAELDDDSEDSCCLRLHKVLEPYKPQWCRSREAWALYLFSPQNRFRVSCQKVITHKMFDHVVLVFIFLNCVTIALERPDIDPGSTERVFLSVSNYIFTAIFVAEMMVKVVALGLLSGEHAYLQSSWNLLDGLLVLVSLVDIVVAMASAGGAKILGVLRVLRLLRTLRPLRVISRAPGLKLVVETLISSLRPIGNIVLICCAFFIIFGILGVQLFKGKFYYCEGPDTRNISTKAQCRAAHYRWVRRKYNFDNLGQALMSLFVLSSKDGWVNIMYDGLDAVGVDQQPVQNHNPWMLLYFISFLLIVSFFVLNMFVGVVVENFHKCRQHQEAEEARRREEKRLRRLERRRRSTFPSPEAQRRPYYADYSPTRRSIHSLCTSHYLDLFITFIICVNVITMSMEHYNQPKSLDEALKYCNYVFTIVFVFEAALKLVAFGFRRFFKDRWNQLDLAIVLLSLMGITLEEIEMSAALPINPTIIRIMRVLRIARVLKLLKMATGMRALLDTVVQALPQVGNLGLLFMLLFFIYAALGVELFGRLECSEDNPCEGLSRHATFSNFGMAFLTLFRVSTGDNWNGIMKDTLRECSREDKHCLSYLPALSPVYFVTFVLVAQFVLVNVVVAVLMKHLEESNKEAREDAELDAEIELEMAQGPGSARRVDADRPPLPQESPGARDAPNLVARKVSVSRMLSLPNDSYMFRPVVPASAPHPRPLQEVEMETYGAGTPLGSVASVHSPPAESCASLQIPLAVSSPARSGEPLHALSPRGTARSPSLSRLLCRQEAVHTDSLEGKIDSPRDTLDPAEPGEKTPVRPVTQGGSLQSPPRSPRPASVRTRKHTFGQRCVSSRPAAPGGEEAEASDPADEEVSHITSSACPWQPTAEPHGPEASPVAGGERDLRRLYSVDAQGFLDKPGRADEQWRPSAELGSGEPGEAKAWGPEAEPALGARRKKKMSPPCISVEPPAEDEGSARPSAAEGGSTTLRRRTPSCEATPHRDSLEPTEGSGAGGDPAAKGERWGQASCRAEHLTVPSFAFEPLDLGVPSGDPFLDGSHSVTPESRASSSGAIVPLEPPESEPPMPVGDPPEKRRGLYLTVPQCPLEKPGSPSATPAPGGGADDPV
Assay: Calcium Influx Inhibition Assay
Settings: Human T-type calcium channel (Cav 3.2) expressing HEK293 cells, FLIPR Calcium 4 fluorescence
// thresholds for IC50 classes: lowest: < 20 nM; middle: ≥ 20 nM and < 90 nM; highest: ≥ 90 nM

Which bin, given its IC50, does Cc1nc(N2CCN(c3nc(C)n(Cc4ccc(C(F)(F)F)s4)c(=O)n3)CC2)ccc1F [compound 365] occupy?
lowest

Lab note: sort O=c1nc(N2CC=C(c3ccc(F)cc3)[C@@H](O)C2)ncn1Cc1ccc(OS(=O)(=O)C(F)(F)F)nc1 [compound 208] into the matching IC50 band.
lowest

Which class holds Cc1nc(N2CC=C(c3ccc(F)cc3)CC2)nc(=O)n1Cc1ccc(C(F)(F)F)s1 [compound 340] ?
lowest

Kindly state the category for this compound: O=c1nc(N2CCN(c3ccc(F)cc3)CC2)ncn1Cc1csc(C(F)(F)F)n1 [compound 29]
highest

Band for the recorded IC50 of CC(C)(C)c1ccc(Cn2cnc(N3CC=C(c4ccc(F)cc4)CC3)nc2=O)cc1 [compound 183] ?
middle

Textbook exercise: identify the category of the compound given here, O=c1nc(N2CC=C(c3ccc(F)cc3)C(O)C2)ncn1Cc1cc2c(s1)CCCC2 (stereo not shown) [compound 201] , according to its measured value.
lowest

Classify this compound: O=c1nc(N2CC=C(c3ccc(F)cc3)CC2)ncn1Cc1ccc2c(c1)CCCO2 [compound 178]
middle

Which class is correct for the following compound? O=c1nc(N2CC=C(c3ccc(F)c(O)c3)CC2)ncn1Cc1ccc(C(F)(F)F)s1 [compound 304]
middle

Form field 'band' for O=c1nc(N2CC=C(c3ccc(F)c(F)c3)CC2)ncn1Cc1ccc(C(F)(F)F)s1 [compound 264]
middle

Please let me know in which category the item O=c1nc(N2CC=C(c3ccc(F)cc3)CC2)ncn1Cc1ccc2oc(C(F)(F)F)cc2c1 [compound 184] belongs.
middle

Categorize the following entry: O=c1nc(N[C@@H]2CO[C@H](c3ccc(F)cc3)C2)ncn1Cc1ccc(C(F)(F)F)s1 (racemic) [compound 309]
highest

# bin lookup: classify O=c1nc(N2CC=C(c3cc4ccccc4o3)CC2)ncn1Cc1ccc(C(F)(F)F)s1 [compound 260] by its IC50
highest

Bin this entry: O=c1nc(N2CCN(c3ccc(Cl)cc3F)CC2)ncn1Cn1ccc(C(F)(F)F)n1 [compound 60]
highest

Textbook exercise: identify the category of the compound given here, Cc1ccc(N2CCN(c3nc(C)n(Cc4ccc(C(F)(F)F)s4)c(=O)n3)CC2)cc1 [compound 363] , according to its measured value.
lowest

In plain terms, what class is Cc1nc(N2CCN(CC(=O)C34CC5CC(CC(C5)C3)C4)CC2)nc(=O)n1Cc1ccc(C(F)(F)F)s1 [compound 487] ?
highest

Where would COc1nc(C2=CCN(c3ncn(Cc4ccc(C(C)(C)C)s4)c(=O)n3)C[C@@H]2O)ccc1Cl [compound 413] land among the classes by reported IC50?
lowest

Could you tell me which band O=c1nc(N2CC=C(c3ccc(F)cc3)C(O)C2)ncn1Cc1ccc(OS(=O)(=O)C(F)(F)F)nc1 (stereo not shown) [compound 189] belongs to?
lowest

State the class of the compound shown: O=c1nc(N2CC=C(c3ccc(F)cc3)CC2)ncn1Cc1ccc2c(c1)OCO2 [compound 182]
highest

Where would O=c1nc(N2CC=C(c3ccc(F)cc3)C(F)C2)ncn1Cc1ccc(Cl)cc1 (stereo not shown) [compound 107] land among the classes by reported IC50?
middle

Which IC50 category applies to Cc1nc(N2CC=C(c3ccc(F)cc3)[C@@H](O)C2)nc(=O)n1C(C)c1ccc(C(F)(F)F)s1 (stereo partly shown) [compound 453] here?
middle

Dear colleague, I would appreciate it if you could identify the bin for O=c1nc(NC2CCC(O)(c3ccc(F)cc3)C2O)ncn1Cc1ccc(Cl)cc1 (stereo not shown) [compound 465] and reply at your convenience.
highest
